Where these numbers come from: paper PMC12410356

Tested on: E. multilocularis metacestode vesicles
assay.comment: Metacestode vesicle viability assay (ATP, CellTiter-Glo)
Assay type: cell-based, Echinococcus multilocularis
test.context: Echinococcus multilocularis, 288 h; 12 days incubation, mean ± SD of three independent experiments
measurement.name: IC50 (nM)

>>> df
                              smiles_record  measurement_name  experimental_value
0  CC(C)(C)c1cc(C(=O)/C(C#N)=N/Nc2cccc(Cl)c2)no1              IC50                2090

---

Test system: E. multilocularis metacestode vesicles
assay.comment: Metacestode vesicle viability assay (ATP, CellTiter-Glo)
Format: cell-based, Echinococcus multilocularis
test.context: 10 µM
# Viability d12 (relative viability) values compiled below

compound	Viability d12 (relative viability), %
CC1CCc2c(N3CCC(O)CC3)c(F)cc3c(=O)c(C(=O)O)cn1c23 (centres unmarked) [MMV637659]	137.188
O=C1CCC(N2C(=O)c3ccccc3C2=O)C(=O)N1 (centres unmarked) [MMV002612]	99.2866
CNC(=O)C1O[C@@H](n2cnc3c(NCc4cccc(I)c4)nc(Cl)nc32)[C@H](O)[C@@H]1O (some centres unmarked) [MMV1593514]	79.1378
Cc1oncc1C(=O)Nc1ccc(C(F)(F)F)cc1 [MMV003291]	99.9529
Clc1ccc(Cn2c(CN3CCCC3)nc3ccccc32)cc1 [MMV002015]	85.4319
Nc1nc(=O)[nH]cc1F [MMV004508]	219.514
CCn1cc(C(=O)O)c(=O)c2cc(F)c(N3CCNC(C)C3)c(F)c21.Cl (centres unmarked) [MMV002350]	92.559
C=C[C@]1(C)C[C@@H](OC(=O)CS[C@@H]2C[C@H]3CC[C@@H](C2)N3C)[C@]2(C)[C@H](C)CC[C@]3(CCC(=O)[C@H]32)[C@@H](C)[C@@H]1O [MMV1633674]	92.0635
COc1cc(NCc2ccc3nc(N)nc(N)c3c2C)cc(OC)c1OC [MMV1580173]	66.8811
CN1CCN(c2ccc3[nH]c(-c4ccc5[nH]c(-c6ccc(O)cc6)nc5c4)nc3c2)CC1 [MMV020752]	69.6365
Cc1cc(C2CCCCC2)n(O)c(=O)c1 [MMV002731]	50.1817
O=c1[nH]cnc2c1ncn2[C@H]1CC[C@@H](CO)O1 [MMV637306]	229.844
O=C(/C=C/n1cnc(-c2cc(C(F)(F)F)cc(C(F)(F)F)c2)n1)NNc1cnccn1 [MMV1593517]	95.9515
Cc1onc(-c2ccccc2Cl)c1C(=O)N[C@@H]1C(=O)N2[C@@H]1SC(C)(C)[C@@H]2C(=O)O [MMV002740]	55.1081

---

Test system: E. multilocularis metacestode vesicles
assay.comment: Phosphoglucose isomerase (PGI) release assay (damage-marker release) on metacestode vesicles
Format: cell-based, Echinococcus multilocularis
test.context: overview screen, 10 μM, singlets, 12 days, relative to 0.1 % Triton X-100, DMSO subtracted
The compounds listed here are annotated with their PGI d12 (relative PGI release).
measurement.name: PGI d12 (relative PGI release) (%)

In [3]: df
Out[3]:
                                   compound  experimental_value
0  Cc1cc(CCOc2c(C)cc(-c3nnn(C)n3)cc2C)on1 [MMV1782349]             -0.8271
1  O=[N+]([O-])/C(Br)=C/c1ccc(Br)o1 [MMV1645051]            -20.9736
2  CC1CN(c2ncnc3c2c(-c2ccccc2)cn3-c2ccc(F)cc2)CC(C)O1 (stereo not shown) [MMV093250]             49.8105
3  NC(=O)c1ccccc1NC(=O)c1ccc(C(=O)Nc2ccccc2C(N)=O)cc1 [MMV508427]            -12.1939
4  O=C(O)c1ccccc1Sc1ncnc2sc3c(c12)CCC3 [MMV1579878]            -24.5374
5    COC(=O)Nc1nc2ccccc2[nH]1 [carbendazim]             74.6935
6  c1ccc(Cn2c(-c3ccccn3)nc3ccccc32)cc1 [MMV1578886]             58.1597
7                NC(=O)c1cnccn1 [MMV003249]              -3.346
8  Clc1cc(Cl)c2c(c1)CCc1ccccc1C2n1ccnc1 (stereo not shown) [MMV1634492]            -25.0724
9  O=C(c1nc2c(C(F)(F)F)cc(C3CC3)cn2c1Cl)N1CCN([C@H]2CC[C@H](O)CC2)C(=O)C1 [MMV1634396]              0.1204

---

System: E. multilocularis metacestode vesicles
assay.comment: Phosphoglucose isomerase (PGI) release assay (damage-marker release) on metacestode vesicles
Type: cell-based, Echinococcus multilocularis
test.context: overview screen, 10 μM, singlets, 12 days, relative to 0.1 % Triton X-100, DMSO subtracted
measurement.name: PGI d12 (relative PGI release) (%)

In [3]: df
Out[3]:
                              smiles_record                measurement_name  units  experimental_value
0     O=C(NC(=O)N1CCCc2ccccc21)c1cccc(Cl)c1  PGI d12 (relative PGI release)      %             -24.682
1  Cc1cc(NS(=O)(=O)c2ccc(-c3ccc(F)cc3F)cc2)no1  PGI d12 (relative PGI release)      %            -26.6121
2  COc1ccc2c(c1)cc(CNC(=O)c1cc3ccccc3o1)n2CC(=O)O  PGI d12 (relative PGI release)      %            -25.8097
3          O=C(Cc1ccccc1F)Nc1nc2ccccc2[nH]1  PGI d12 (relative PGI release)      %             84.4551
4                      CCCCc1ccc(C(=O)O)nc1  PGI d12 (relative PGI release)      %             -20.229
5  O=C(N[C@H](CCS)C(=O)N[C@H](Cc1ccccc1)C(=O)O)c1cc2ccccc2[nH]1  PGI d12 (relative PGI release)      %            -10.8141
6       C=C(C)n1c(=O)n(Cc2ccccc2C)c2ccccc21  PGI d12 (relative PGI release)      %             93.1874
7  CCCCCCCCCN1C[C@@H](O)[C@H](O)[C@@H](O)[C@@H]1CO  PGI d12 (relative PGI release)      %              -3.193
8  CN1CCN(c2ccc3[nH]c(-c4ccc5[nH]c(-c6ccc(O)cc6)nc5c4)nc3c2)CC1  PGI d12 (relative PGI release)      %               7.527

---

// Viability d12 (relative viability) lookup, one value per entry
System: E. multilocularis metacestode vesicles
assay.comment: Metacestode vesicle viability assay (ATP, CellTiter-Glo)
Type: cell-based, Echinococcus multilocularis
test.context: overview screen, 10 μM, singlets, 12 days, relative to DMSO control
measurement.name: Viability d12 (relative viability) (%)

>>> print(df.to_string())
                                    compound  experimental_value
 0  COc1cc(NC(=O)CN2C(=O)NC(c3ccccc3)(c3ccccc3)C2=O)cc(OC)c1             61.4538
 1    Cc1ccccc1NC(=O)Nc1cccc([N+](=O)[O-])c1             89.4166
 2  COc1ccc(OCc2ccc(COc3c(Cl)cccc3Cl)cc2)c(Cl)c1             122.098
 3  Cl.Cl.NCCCc1ccccc1C(=O)Nc1ncc([N+](=O)O)s1             116.729
 4          C=CCc1cc(Cc2cnc(N)nc2N)cc(OC)c1O             47.2094
 5                 C[C@@H]1O[C@@H]1P(=O)(O)O             22.2102
 6  O=C(CCc1ccc2c(c1)OCO2)NCc1ccc(-c2ccccc2F)cc1             100.363
 7     C[C@@H](NC(=O)c1ccccc1-c1ccccc1)B(O)O             135.265
 8          O=C(Cc1ccccc1F)Nc1nc2ccccc2[nH]1             28.1158
 9  CC[N+]1(C/C2=C/CCCCCC2)CCC(NC(=O)C2c3cc(Cl)ccc3Oc3ccc(Cl)cc32)CC1.[I-] (stereo not shown)             73.6372
10  C=CCN(C(=O)OCc1ccc([N+](=O)[O-])cc1)C1CCN(CC[C@](C)(CN(C)S(=O)(=O)c2ccccc2)c2ccccc2)CC1              76.726
11            COc1ccc2nc(-c3ccccc3)cc(O)c2c1             19.5448
12  Nc1ccc(-c2nc3cc(C(F)(F)F)ccc3n2C23CC4CC(CC(C4)C2)C3)cc1             100.869
13       O=C1C=C(c2ccccc2)S(=O)(=O)c2ccccc21             120.957
14  C[C@@]1(O)[C@H](O)[C@@H](CO)O[C@H]1n1ccc2c(N)ncnc21             152.992
15  Cc1cc(CCCOc2c(C)cc(-c3noc(C(F)(F)F)n3)cc2C)on1             74.4224
16  C[C@H](NC(=O)C(=O)Nc1ccccc1C(C)(C)C)C(=O)N[C@@H](CC(=O)O)C(=O)COc1c(F)c(F)cc(F)c1F             57.1149
17           CCc1oc2ccccc2c1C(=O)c1ccc(O)cc1             72.3877
18                      O=C1NC(=O)C(Br)=C1Br             135.147
